Data credit: PubChem BioAssay (NCI)

Please respond with reported TGI for every item in the list.
Test system: SK-MEL-28 melanoma
Test: NCI tumour cell line growth inhibition, 48 h

// query # query: TGI | item COC(=O)CC1CCN(C#N)CC1CC[N+](=O)[O-] (centres undefined) | system: SK-MEL-28 melanoma
// result > 100 µM

// query Next record, please: COC1CCC2C(NS(=O)(=O)c3ccc(C)cc3)CCCC2O1 (centres undefined) (tested in a mixture with another compound)
// result > 34.5 µM

// query Next record, please: O=C1c2ccccc2C2C1N2C(=O)C(F)(F)F (centres undefined)
// result > 100 µM

// query Next record, please: COc1ccc(C2c3cc4c(cc3OC(NNS(=O)(=O)c3ccc(C)cc3)C2C)OCO4)cc1 (centres undefined)
// result > 100 µM
